B1: tRNA (parent)
chain: CUCUCGGUAGCCAAGUUGGUUUAAGGCGCAAGACUUUAAUUUAUCACUACGAAAUCUUGAGAUCGGGCGUUCGACUCGCCCCCGGGAGAUUUUUUCCUCGAGCAA

- Variants of: B1
- Assay Overview: nonsense suppression (GFP-seq) (ratio to wild type); higher = more function; SUP4oc tRNA, yeast GFP reporter sort-seq
Variants at the floor of the assay were thinned out.

Construct Sequence: CUCUCGGUAGCCAAGUUGGUUGAAGGCGCAAGACUUUAAUUUAUCACUACGAAAUCUUGAGAUCGGGCGUUCGACUCUCCCCCGAGAGAUUUUUUCCUCGAGCAA [U22G G78U G85A]
nonsense suppression: 0.788

Construct Sequence: CUCUCGGUAGCCAAGAUGGUGUAAGGCGCAAGACUUUAAUUUAUCACUACGAAAUCUUGAGAUCGGGCGUUCGACUCGCCCCCGGGAGAUUUUUUCCUCGAGCAA [U16A U21G]
nonsense suppression: 0.752

Construct Sequence: CUCUCGGUAGCCAAGUUGGUUUAAGGCGCAAGACUUUAAUUUAUCACUACGAAAUCUUGAGAUCGGGCGUUCGACUCGCCCCCGGGAUCUUUUUUCCUCGAGCAA [G88U A89C]
nonsense suppression: ≤ 0.026

Construct Sequence: CUCUCGGUAGCCAAGUUGGUUUAAGGCGCAAGACUUUAAUUUAUCACUACGAAAUCUUGAGAUCGGACGUUCGAGUCGCCCCCGGGAGAUUUUUUCCUCGAGCAA [G67A C75G]
nonsense suppression: 0.194

Construct Sequence: CUCUCGAUCGCCAAGUUGGUUUAAGGCGCAAGACUUUAAUUUAUCACUACGAAGUCUUGAGAUCGGGCGUUCGACUCGCCCCCGGGAGAUUUUUUCCUCGAGCAA [G7A A9C A54G]
nonsense suppression: ≤ 0.026

Construct Sequence: CUCUCGGUAGCCAAGUUGGUUUAAUGCGCAAGACUUUAAUUUAUCACUACGAAUUCUUGAGAUCGGGCGUUCGACUCCCCCCCGGGAGAUUUUUUCCUCGAGCAA [G25U A54U G78C]
nonsense suppression: ≤ 0.026

Construct Sequence: CUCUUGGUAGCCAGGUUGGUUUAAGGCGCAAGACUUUAAUUUAUCACUACGAAAGCUUGAGAUCGGGCGUUCGACUCGCCCCCGGGAGAUUUUUUCCUCGAGCAA [C5U A14G U55G]
nonsense suppression: ≤ 0.026

Construct Sequence: CUCCCGGUAGCCAAGUUGGUUUAAGGCGCUAGACUUUAAUUUAUCACUACGAAAUCUUGAGAUCGGGCGUUCGACUCGCCCCCGGGAGAUUUUUUCCUCGAGCAA [U4C A30U]
nonsense suppression: 0.0792

Construct Sequence: CUCUUGGUAGCCAAGUUGGUUUAAGGCGCAAGACUUUAAUUUAUCACUACGAAAUCUUGAGAUCGGGCGUUCGACUCGCCCCCGGGGGAUUUUUUCCUCGAGCAA [C5U A87G]
nonsense suppression: 0.0561

Construct Sequence: CUCUCGGUAGCCAAGUUGGCUUAAGGCGCAAGACUUUAAUUUAUCACUACGAAAUCUUGAGAUCGGGCGUUCGACUCGCCCCCGGGGGAUUUUUUCCUCGAGCAA [U20C A87G]
nonsense suppression: 0.213

Construct Sequence: CUCUCGGUAGCCAAGUUGGUUGAAUGCGCAAGACUUUAAUUUAUCACUACGAAAUCUUGAGAUCGUGCGUUCGACUCGCCCCCGGGAGAUUUUUUCCUCGAGCAA [U22G G25U G66U]
nonsense suppression: ≤ 0.026

Construct Sequence: CUCUCGGUAGCCAAGUUGGUUUAAGGCGCUAGACUUUAAUUUAUCACUACGAAACCUUGAGAUCGGGCGUUCGACUCGCCCCCGGGCGUUUUUUUCCUCGAGCAA [A30U U55C A87C A89U]
nonsense suppression: 0.0456

Construct Sequence: CUCUCGGUAGCCAAGUUGGGGUAAGGCGCAAGACUUUAAUUUAUCACUACGAAAUCUUGAGAUCGGGCGUUCGACUCGCCCCCGGGAGAUUUUUUCCUCGAGCAA [U20G U21G]
nonsense suppression: 0.75

Construct Sequence: CUCUCGGUAGCCAAGUUGGUUUAAGGCGCAAGACUUUAAUUUAUCACUACGAAAUCUUGUGAUCGGGCGUUCGACUCCCCCCCGAGAGAUUUUUUCCUCGAGCAA [A60U G78C G85A]
nonsense suppression: 1.16

Construct Sequence: CUCUCGGUAGCCAAGUUGGUUUCAGGCGCAAGACUUUAAUUUAUCACUACGAAAUCUUCACAUCGGGCGUUCGACUCGCCCCCGGGAGAUUUUUUCCUCGAGCAA [A23C G59C G61C]
nonsense suppression: ≤ 0.026

Construct Sequence: CUCUCGGUAGCCAAGUUGGUUUAAGGCGCAAGACUUUAAUUUAUCACUACGAAAUCUUGAGAUCGGGCGUUCGACACGCCCCCGUGAGAUUUUUUCCUCGAGCAA [U76A G85U]
nonsense suppression: 0.0588

Construct Sequence: CUCUCGGUAGCCAAGUUGGUCAAAGGCGCAAGACUUUAAUUUAUCACUACGAAAUCUUGAGAUCGGGCGUUCGACUCGCCCCCGGGAGAUUUUUUCCUCGAGCAA [U21C U22A]
nonsense suppression: 1.14

Construct Sequence: CUCUCGGUAGCCAAGUUGGUUUAAGGCGCAAGACUUUAAUUUAUCACUACGAAAUCUUGAGGUCGGGCGUUCGACUCGCCCCAGGGAGAUUUUUUCCUCGAGCAA [A62G C83A]
nonsense suppression: ≤ 0.026

Construct Sequence: CCCUCGGUAGCCAAGUUGGUUUAAGUCGCAAGACUUUAAUUUAUCACUACGAAAUCUUGAGAUCGGGCGUUCGACACGCCCCCGGGAGAUUUUUUCCUCGAGCAA [U2C G26U U76A]
nonsense suppression: ≤ 0.026

Construct Sequence: CCCUCGGUAGCCAAGUUGGUUUAAGGCGCAAGACUUUAAUUUAUCACUACGAAAUGUUGAGAUCGGGCGUUCGACUCGCCCCCGGGAGAUUUUUUCCUCGAGCAA [U2C C56G]
nonsense suppression: ≤ 0.026

Construct Sequence: CUCUCGGUAGCCAAGUUCGUUUACGGCGCAAGUCUUUAAUUUAUCACUACGAAAUCUUGAGAUCGGGCGUUCGACUCGCCCCCGGGAGAUUUUUUCCUCGAGCAA [G18C A24C A33U]
nonsense suppression: ≤ 0.026

Construct Sequence: UUCUCGCUAGCCAAGUUGGUUUAAGGCGCAAGACUUUAAUUUAUCACUACGAAAUCUUGAGAUCGGGCCUUCGACUCGCCCCCGCGAGAUUUUUUCCUCGAGCAA [C1U G7C G69C G85C]
nonsense suppression: ≤ 0.026
